Target: UniProt Q05469
Assay: Inhibitory activity against Human Hormone-sensitive lipase (HSL) expressed in the baculovirus was determined by HSL [14 C] cholesteryl oleate assay
Observed property: IC50 (nM)
One number for each entry, in nM.

Enquiry: Name the value of IC50 reported for COC(=O)C1CC2(COCc3ccccc3)C(=O)N(CCCCc3ccccc3)CC(=O)N2C1c1ccco1 (stereo unspecified) when tested on UniProt Q05469.
Return: 260

----------
Biological target: Hormone-sensitive lipase (Homo sapiens)
Sequence (Q05469 whole entry): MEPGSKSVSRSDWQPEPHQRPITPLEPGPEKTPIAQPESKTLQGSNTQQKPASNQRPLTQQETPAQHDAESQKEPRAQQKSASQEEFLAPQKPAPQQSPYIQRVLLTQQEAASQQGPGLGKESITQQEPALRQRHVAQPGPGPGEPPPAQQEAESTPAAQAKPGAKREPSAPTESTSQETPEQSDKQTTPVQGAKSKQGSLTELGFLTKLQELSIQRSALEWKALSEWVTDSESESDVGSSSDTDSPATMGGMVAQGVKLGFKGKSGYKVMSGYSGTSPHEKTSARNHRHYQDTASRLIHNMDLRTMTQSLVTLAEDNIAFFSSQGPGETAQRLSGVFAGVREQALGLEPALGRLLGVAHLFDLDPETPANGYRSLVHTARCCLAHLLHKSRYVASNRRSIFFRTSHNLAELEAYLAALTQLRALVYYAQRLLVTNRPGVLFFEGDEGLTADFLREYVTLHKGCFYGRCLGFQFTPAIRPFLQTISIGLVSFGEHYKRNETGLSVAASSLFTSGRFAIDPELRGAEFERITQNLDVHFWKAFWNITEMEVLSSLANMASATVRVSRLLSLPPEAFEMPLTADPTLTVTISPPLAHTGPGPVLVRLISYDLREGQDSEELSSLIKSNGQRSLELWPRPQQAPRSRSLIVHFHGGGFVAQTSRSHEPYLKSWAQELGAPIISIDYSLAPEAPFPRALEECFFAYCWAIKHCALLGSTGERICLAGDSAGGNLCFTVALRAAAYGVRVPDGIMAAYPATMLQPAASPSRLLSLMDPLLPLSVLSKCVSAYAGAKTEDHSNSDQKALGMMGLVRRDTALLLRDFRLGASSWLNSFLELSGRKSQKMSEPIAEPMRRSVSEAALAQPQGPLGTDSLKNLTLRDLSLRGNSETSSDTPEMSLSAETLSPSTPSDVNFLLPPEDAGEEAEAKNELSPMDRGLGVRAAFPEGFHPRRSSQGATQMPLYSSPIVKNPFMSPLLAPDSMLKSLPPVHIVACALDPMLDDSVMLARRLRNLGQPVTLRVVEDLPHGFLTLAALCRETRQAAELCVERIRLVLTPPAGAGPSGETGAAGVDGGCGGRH
Assay: Inhibitory activity against human hormone-sensitive lipase (HSL) expressed in the baculovirus was determined by p-nitrophenyl butyrate (PNPB) assay
Observed property: IC50 (nM)
Answers are plain numbers, in nM.

Enquiry: State the measured IC50 (Hormone-sensitive lipase (Homo sapiens)) of COC(=O)C1CC2(COCc3ccccc3)C(=O)N(CCCCc3ccccc3)CC(=O)N2C1c1ccco1 (stereo unspecified)
Return: 210
